Test system: IL-6-induced cofilactin rods in Day 55 human neurons
property: EC50

compound="C[C@H](O)[C@@H](N)C(=O)N[C@@H](C(=O)N[C@H](CC(N)=O)C(=O)N[C@H](Cc1ccc(O)cc1)C(=O)N[C@@H](C(=O)O)[C@H](C)O)[C@H](C)O [RAP-103]" system_name="IL-6-induced cofilactin rods in Day 55 human neurons" endpoint_value="~0.1 pM"

Values from paper PMC10813319
